Target Or System: RSV prefusion F (preF), DS-Cav1 stabilized trimer, subtype A (Respiratory Syncytial Virus, subtype A, UniProt P03420 26-513)
Assay Name: BLI, IgG on anti-human IgG sensors, 100 nM antigen, apparent KD
pKd: −log10 of the molar value.
Short version: pKd at least 8 is condition met, less is condition not met.

Consider the following illustrative entries.
>  <Binder>
ADI-41833 (antibody, V domains shown) VH: EVQLLESGGGLVQPGGSLRLSCAASRFTFSTYAMSWVRQAPGKGLEWVSSISGSGDKTFYTDSVKGRFTISRDNSKNTLYLQMNSLRAEDTAVYYCARESYYELWTGTYPGWELDYWGQGTLVTVSS VL: DIQLTQSPSSLSASVGDRVTITCRASQDISNYLAWYQQKPGKPPKLLIYAASILESGAPSRFSGSGSGTDFTLTISSLQPEDVGTYYCQKSNSAPRPFGQGTKVEIK

>  <Assigned Class>
condition met

$$$$
>  <Binder>
ADI-41841 (antibody, V domains shown) VH: EVQLLESGGGLVKPGGSLRLSCAASGFSFSYYSMNWVRQTPGKGLEWVSSISDRSSYISYADSVKGRFTISRDNAKNSLYLQMNSLRAEDTAVYYCARDQYESYAFDIWGQGTTVTVSS VL: DIQVTQSPSSLSASVGDRITITCQASQDVGNYLNWYQQKVGKAPKLLIHDASDLETGVPSRFSGSGSGTYFTFTISSLQPEDFATYYCQPYDNLRPVTFGQGTRLEIK

>  <Assigned Class>
condition met

$$$$
>  <Binder>
ADI-43642 (antibody, V domains shown, also called Ab 947; Antibody Number 947) VH: EVQLLESGGGLVKPGGSLRLSCAASGFTFSSYSMNWVRQAPGKGLEWVSSISSSSSYIYYADSVKGRFTISRDNAKNSLYLQMNSLRAEDTAVYYCARDGADSSYYYYMDVWGKGTTVTVSS VL: QAVVTQPPSVSGAPGQRVTISCTGSSSNIGAGYDVHWYQQLPGTAPKLLIYGNSNRPSGVPDRFSGSKSGTSASLAITGLQAEDEADYYCQSYDSSLSGSVFGGGTKLTVL

>  <Assigned Class>
condition not met

$$$$

// next entry
Enquiry: Does the reported pKd for ADI-41838 (antibody, V domains shown, also called Ab 938; Antibody Number 938) VH: EVQLLESGGGVVQPGRSLRLSCAASEFTFRSYAMHWVRQAPGMGLEWVAVTPYDGISKYYADSVKGRFTISRDNSKNTLYLQMNSLRPEDTAVYYCARGFPEPITSWPGYFYAMDVWGQGTTVTVSS VL: QSALTQPASVSGSPGQSITISCTGTTSDVGVYNYVSWYQQHPGKAPKLMIYDVSNRPSGVSNRFSGSKSGNTASLTISGLQAEDEADYYCSSYTNSDTPVVFGGGTKLTVL fall at or above the 8 mark?
Return: condition not met
